Substrate: CCCC(=O)Oc1ccc([N+](=O)[O-])cc1
assay_method_text: purified protein
Assay type: biochemical, Falsihalocynthiibacter arcticus
run_conditions: free enzyme, 20 mM Tris-HCl pH 8.0, 25 °C (standard assay)
recorded_endpoint: kcat/Km

* HaSGNH1 (Falsihalocynthiibacter arcticus) (protein, ORF cloned from genomic DNA (primer starts ATG AGT GCT CGC GTT: MSARV), pET-21a, N-terminal His6 tag, E. coli BL21(DE3)) MSARVQAETVVIAALGDSLTQGYGLPQEDGLVAQLQGWLDENNHDIRLINAGVSGDTTAGGRSRIEWTLTPDVDAVIVELGGNDMMRGIAPSDSRKNLTEILEILQSRDLPVLLVGLPSANNFGPEFKAEFDDMFPALSTDFETLLYPDFFTSFRTKLNDTSALTTYMQDDAIHPNAKGVAAIVEDFGPLVVELAQQTQE | 21300 M⁻¹ s⁻¹
* HaSGNH1 (Falsihalocynthiibacter arcticus; M86E) (protein, ORF cloned from genomic DNA (primer starts ATG AGT GCT CGC GTT: MSARV), pET-21a, N-terminal His6 tag, E. coli BL21(DE3)) MSARVQAETVVIAALGDSLTQGYGLPQEDGLVAQLQGWLDENNHDIRLINAGVSGDTTAGGRSRIEWTLTPDVDAVIVELGGNDMERGIAPSDSRKNLTEILEILQSRDLPVLLVGLPSANNFGPEFKAEFDDMFPALSTDFETLLYPDFFTSFRTKLNDTSALTTYMQDDAIHPNAKGVAAIVEDFGPLVVELAQQTQE | 3800 M⁻¹ s⁻¹
* HaSGNH1 (Falsihalocynthiibacter arcticus; R87L) (protein, ORF cloned from genomic DNA (primer starts ATG AGT GCT CGC GTT: MSARV), pET-21a, N-terminal His6 tag, E. coli BL21(DE3)) MSARVQAETVVIAALGDSLTQGYGLPQEDGLVAQLQGWLDENNHDIRLINAGVSGDTTAGGRSRIEWTLTPDVDAVIVELGGNDMMLGIAPSDSRKNLTEILEILQSRDLPVLLVGLPSANNFGPEFKAEFDDMFPALSTDFETLLYPDFFTSFRTKLNDTSALTTYMQDDAIHPNAKGVAAIVEDFGPLVVELAQQTQE | 22200 M⁻¹ s⁻¹
